# system_name: UniProtKB P43250
# Sequence (P43250 whole entry, looked up): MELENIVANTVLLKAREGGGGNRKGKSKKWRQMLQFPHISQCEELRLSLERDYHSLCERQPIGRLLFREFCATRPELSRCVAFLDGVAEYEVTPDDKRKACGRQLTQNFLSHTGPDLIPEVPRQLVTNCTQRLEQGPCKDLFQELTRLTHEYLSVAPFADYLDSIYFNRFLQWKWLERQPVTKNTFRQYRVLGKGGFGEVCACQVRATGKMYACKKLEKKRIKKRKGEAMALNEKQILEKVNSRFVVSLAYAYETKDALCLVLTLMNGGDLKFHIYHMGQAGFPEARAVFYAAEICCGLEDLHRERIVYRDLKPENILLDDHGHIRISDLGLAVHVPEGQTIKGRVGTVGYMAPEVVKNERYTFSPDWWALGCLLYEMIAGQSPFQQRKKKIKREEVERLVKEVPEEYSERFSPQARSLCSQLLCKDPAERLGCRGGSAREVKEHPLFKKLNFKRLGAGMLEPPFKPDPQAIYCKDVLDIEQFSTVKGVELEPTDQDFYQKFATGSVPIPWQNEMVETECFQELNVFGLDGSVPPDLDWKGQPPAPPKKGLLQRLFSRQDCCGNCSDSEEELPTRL
# assay_summary: radiometric filter-binding kinase assay, Kinase HotSpot
# assay_setup: compound 0.5 µM; ATP 10 µM

>  <compound>
Cc1ccc(Nc2nccc(N(C)c3ccc4c(C)n(C)nc4c3)n2)cc1S(N)(=O)=O

>  <quantity_unit>
%

>  <residual activity>
102

$$$$
>  <compound>
CCN(CC)C(=O)c1ccc(Nc2nc(OCC3CCCCC3)c3nc[nH]c3n2)cc1

>  <quantity_unit>
%

>  <residual activity>
99.5

$$$$
>  <compound>
CCN(CC)CCNC(=O)c1c(C)[nH]c(/C=C2\C(=O)Nc3ccc(F)cc32)c1C

>  <quantity_unit>
%

>  <residual activity>
74.7

$$$$
>  <compound>
c1ccc(-c2n[nH]c3c2oc2ccccc23)cc1

>  <quantity_unit>
%

>  <residual activity>
102

$$$$
>  <compound>
COc1ccc2c(c[n+](C)c3c4cc5c(cc4ccc23)OCO5)c1OC

>  <quantity_unit>
%

>  <residual activity>
104

$$$$
>  <compound>
O=C(Nc1cccc(Nc2nccc(Nc3cccc(C(F)(F)F)c3)n2)c1)C1CC1

>  <quantity_unit>
%

>  <residual activity>
93.8

$$$$
>  <compound>
O=C1Nc2ccc(Cl)cc2/C1=C/c1cc(Cl)c(O)c(Cl)c1

>  <quantity_unit>
%

>  <residual activity>
89.6

$$$$
>  <compound>
N#CC(C#N)=C(N)/C(C#N)=C/c1ccc(O)cc1

>  <quantity_unit>
%

>  <residual activity>
107

$$$$
>  <compound>
CCN(CC)CCNC(=O)c1c(C)[nH]c(/C=C2\C(=O)Nc3ccc(Cl)cc32)c1C

>  <quantity_unit>
%

>  <residual activity>
46.3

$$$$
>  <compound>
O=S(=O)(c1cccc2cnccc12)N1CCCNCC1

>  <quantity_unit>
%

>  <residual activity>
95.4

$$$$
>  <compound>
CNC(=O)c1cc(Oc2ccc(NC(=O)Nc3ccc(Cl)c(C(F)(F)F)c3)cc2)ccn1

>  <quantity_unit>
%

>  <residual activity>
107

$$$$
>  <compound>
O=C1NC(=O)/C(=C/c2ccc3c(c2)OC(F)(F)O3)S1

>  <quantity_unit>
%

>  <residual activity>
95.4

$$$$
>  <compound>
O=C1NC(=O)c2c1c1c3ccccc3n3c1c1c2c2ccccc2n1C1CCC3O1

>  <quantity_unit>
%

>  <residual activity>
55.6

$$$$
>  <compound>
O=c1cc(N2CCOCC2)oc2c1ccc1ccccc12

>  <quantity_unit>
%

>  <residual activity>
93.8

$$$$
>  <compound>
Oc1cccc(-c2nc(N3CCOCC3)c3oc4ncccc4c3n2)c1

>  <quantity_unit>
%

>  <residual activity>
98.2

$$$$
>  <compound>
Cc1ccc(S(=O)(=O)/C=C/C#N)cc1

>  <quantity_unit>
%

>  <residual activity>
112

$$$$
>  <compound>
CC[n+]1c(/C=C/N(C)c2ccccc2)n(-c2ccccc2)c2ccc(-c3nc4ccccc4s3)cc21

>  <quantity_unit>
%

>  <residual activity>
98.9

$$$$
>  <compound>
CCOC(=O)c1c(C)[nH]c(/C=C2\C(=O)Nc3ccccc32)c1C

>  <quantity_unit>
%

>  <residual activity>
90.8

$$$$
>  <compound>
c1ccc(-c2n[nH]cc2-c2ccnc3ccccc23)nc1

>  <quantity_unit>
%

>  <residual activity>
94.6

$$$$
>  <compound>
Nc1cccc(-c2cc3c(Oc4cccc(O)c4)ncnc3[nH]2)c1

>  <quantity_unit>
%

>  <residual activity>
98

$$$$
>  <compound>
O=C1NC(=O)C(c2cn(CCCn3ccnc3)c3ccccc23)=C1Nc1ccccc1

>  <quantity_unit>
%

>  <residual activity>
98.4

$$$$
>  <compound>
Nc1ccc2ncnc(NCCc3ccc(Oc4ccccc4)cc3)c2c1

>  <quantity_unit>
%

>  <residual activity>
99.3

$$$$
>  <compound>
CC(C)N(CCC(=O)c1ccc2ccccc2c1)Cc1ccccc1

>  <quantity_unit>
%

>  <residual activity>
87.1

$$$$
>  <compound>
Cc1[nH]c(/C=C2\C(=O)Nc3ccc(S(=O)(=O)N(C)c4cccc(Cl)c4)cc32)c(C)c1C(=O)N1CCN(C)CC1

>  <quantity_unit>
%

>  <residual activity>
89.7

$$$$
>  <compound>
COc1cc2ncnc(Nc3cccc(Cl)c3)c2cc1OC

>  <quantity_unit>
%

>  <residual activity>
96.8

$$$$
>  <compound>
CO[C@H]1CC2CC[C@@H](C)[C@@](O)(O2)C(=O)C(=O)N2CCCC[C@H]2C(=O)OC([C@H](C)C[C@@H]2CC[C@@H](O)[C@H](OC)C2)CC(=O)[C@H](C)/C=C(\C)[C@@H](O)[C@@H](OC)C(=O)[C@H](C)C[C@H](C)/C=C/C=C/C=C/1C (stereo partly specified)

>  <quantity_unit>
%

>  <residual activity>
103

$$$$
>  <compound>
N#C/C(=C(/N)Sc1ccc(N)cc1)c1ccccc1C(F)(F)F

>  <quantity_unit>
%

>  <residual activity>
100

$$$$
>  <compound>
CCC(=O)Nc1ccc2ncnc(Nc3cccc(Br)c3)c2c1

>  <quantity_unit>
%

>  <residual activity>
97.6

$$$$
>  <compound>
CC#CC(=O)Nc1cc2c(Nc3ccc(F)c(Cl)c3)ncnc2cn1

>  <quantity_unit>
%

>  <residual activity>
104

$$$$
>  <compound>
CC(=O)c1ccc(N2CCOCC2)cc1O

>  <quantity_unit>
%

>  <residual activity>
100

$$$$
>  <compound>
COc1ccc(COc2ccc(Cc3cnc(N)nc3N)cc2OC)cc1

>  <quantity_unit>
%

>  <residual activity>
99.8

$$$$
>  <compound>
CNc1cc2c(Nc3cccc(Br)c3)ncnc2cn1

>  <quantity_unit>
%

>  <residual activity>
91.1

$$$$
>  <compound>
Nc1ncnc2c1c(-c1ccc(Oc3ccccc3)cc1)cn2C1CCCC1

>  <quantity_unit>
%

>  <residual activity>
92.6

$$$$
>  <compound>
CCCC(=O)Oc1ccc2[nH]c(C(=O)c3cc4ccccc4[nH]3)cc2c1

>  <quantity_unit>
%

>  <residual activity>
95.8

$$$$
>  <compound>
Nc1ncnc2[nH]nc(Nc3ccc(F)cc3)c12

>  <quantity_unit>
%

>  <residual activity>
103

$$$$
>  <compound>
Cc1ccc(NC2=CC(=O)c3sc(C)nc3C2=O)cc1

>  <quantity_unit>
%

>  <residual activity>
96.8

$$$$

Recorded values, source the kinase profiling compilation of Christmann-Franck et al. (2016).
